target: Platelet-derived growth factor receptor alpha (Homo sapiens, UniProt P16234, D842V); experiment: Inhibition of PDGFR-alpha D842V mutant (unknown origin) using Tyr 04 peptide as substrate incubated for 1 hr in presence of ATP by FRET-based Z'-Lyte assay
Sequence (P16234 24-1089 D842V limits assumed): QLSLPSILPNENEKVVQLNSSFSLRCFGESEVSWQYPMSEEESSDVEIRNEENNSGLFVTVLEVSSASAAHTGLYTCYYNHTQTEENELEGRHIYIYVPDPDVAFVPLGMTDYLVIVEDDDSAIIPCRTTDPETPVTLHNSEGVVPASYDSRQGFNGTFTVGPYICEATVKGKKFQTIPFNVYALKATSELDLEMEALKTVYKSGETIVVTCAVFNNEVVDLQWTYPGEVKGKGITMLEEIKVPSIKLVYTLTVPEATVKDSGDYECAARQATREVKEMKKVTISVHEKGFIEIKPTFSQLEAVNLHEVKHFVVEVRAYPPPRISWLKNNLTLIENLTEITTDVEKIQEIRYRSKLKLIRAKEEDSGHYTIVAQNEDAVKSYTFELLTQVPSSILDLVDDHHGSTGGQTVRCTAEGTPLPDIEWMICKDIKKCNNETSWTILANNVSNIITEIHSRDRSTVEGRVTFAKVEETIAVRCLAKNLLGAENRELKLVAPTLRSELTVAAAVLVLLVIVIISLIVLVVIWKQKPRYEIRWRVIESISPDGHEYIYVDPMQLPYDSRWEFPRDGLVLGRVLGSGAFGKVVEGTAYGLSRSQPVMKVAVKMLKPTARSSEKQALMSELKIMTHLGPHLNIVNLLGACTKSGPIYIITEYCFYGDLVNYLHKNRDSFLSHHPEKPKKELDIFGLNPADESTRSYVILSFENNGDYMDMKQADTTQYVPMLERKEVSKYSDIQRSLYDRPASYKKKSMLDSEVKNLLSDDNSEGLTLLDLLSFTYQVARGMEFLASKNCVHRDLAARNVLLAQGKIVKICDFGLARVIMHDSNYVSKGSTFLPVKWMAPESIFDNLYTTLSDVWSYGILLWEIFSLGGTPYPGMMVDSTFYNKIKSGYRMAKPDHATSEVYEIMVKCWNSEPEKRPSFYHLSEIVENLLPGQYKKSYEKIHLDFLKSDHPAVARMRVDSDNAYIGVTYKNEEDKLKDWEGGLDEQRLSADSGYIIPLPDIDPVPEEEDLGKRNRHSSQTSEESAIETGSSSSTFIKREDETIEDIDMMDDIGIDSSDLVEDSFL
OBSERVED_PROPERTY: IC50

Q: For the compound "Clc1cnc2nc1N1CCC(CC1)NCCCOc1ccc3ncn-2c3c1" , what IC50 is on record?
A: > 10 µM

* * *

target: Platelet-derived growth factor receptor alpha (Homo sapiens, UniProt P16234, D842V); experiment: Inhibition of PDGFR-alpha D842V mutant (unknown origin) expressed in mouse BaF3 cells; format: cell-based
OBSERVED_PROPERTY: IC50

Q: For the compound "Clc1cnc2nc1N1CCC(CC1)NCCCOc1ccc3ncn-2c3c1" , what IC50 is on record?
A: > 1000 nM

* * *

I'd appreciate it if you could supply IC50 values for the items below.
assay: cells; details: Mus musculus, BaF3, 72 h

c1cc2c3nc(ccc3c1)-n1cnc3ccc(cc31)OCCNC1CCN2CC1 : 0.0276 µM

We now examine a further compound.
Q: For the compound "CC1(COc2ccc3c(c2)ncn3-c2ccc3cccc(N4CCC(N)CC4)c3n2)COC1" , what IC50 is on record?
A: 0.0237 µM
